# Method notes: yeast display, Sf9 membrane polyspecificity reagent, FACS + sequencing; frameworks hold sequencing errors
Metric name: polyreactivity (PSR sort gate)

Entry sequence	Value observed
QVQLVESGGGLVQAGGSLRLSCAASGITFGGNALGWYRQAPGTERELVAGIDDGGSTNYADSVKGRFTISRDNAKNTVYLQMNSLKPEDTAVYYCAVQGHPPLVILPGFLFDYWGQGTQVTVSS	low polyreactivity
QVQLVESGGGLVQAGGSLRLSCAASGYTFDYYAMGWYRQAPGKERELVAAIRRGGSTYYADSVKGRFTISRDNAKNTVYLQMNSLKPEDTAVYYCAAVIYRDGTIYDYWGQGTQVTVSS	high polyreactivity
QVQLVESGGGLFQAGGSLSLSCAASGFIFSGYAMGWYRQAPGTERELVAAITWSCSNTFYADSVKGRFTISRDNAKITVFLQMNSLKPEDTAVYYCTAVSKYKRSDYYYWGQGTQVTVSS	high polyreactivity
QVQLVESGGGLVQAGGSLRLSCAASGSIFGYYAMGWYRQAPGKERELVAAITTRGGRTYYADSVKGRFTISRDNAKNTVYFQINSLKPEDTAVYYCAARTGRGRYDYWGQGTQVTVSS	high polyreactivity
QVQLVESGGGVVQAGGSLRLTCAASGFTFARYATGWYRQAPGKERELVAAITYSGGRTYYADSVKGRFTISRDNAKNTVYLHMNSLKPEDTAVYYCAARQYGPRYTYYYWGQGTQVTVSS	high polyreactivity
QVQLVESGGGLVQAGGSLRLSCAASGNTFTWYTMGWYRQAPGKERELVAVITSDGSTYYADSVKGRFTISRDNAKNTVYLQMNRLKPEDTAVYYCNALSADWYPEEDYWGQGTQVTVSS	low polyreactivity
QVQLVESGGGLVQAGGSLRLSCAASGSTFTQYAMGWYRQAPGKERELVATISRRGTRTYYADSVKGRFTISRDNAKNTVYLQMNSLKPEDTAVYYCAADNGPYRTIGYDSWGQGTQVTVSS	high polyreactivity
QVQLVESGGGLVQAGGSLRLSCAASGITFGRYAMGWYRQAPGKERELVAAISSRTGRTYYADSVKGRFTISRDNAKNTVYLQMNSLKPEDTAVYYCARDSKLSASYDRDDSWGQGTQVTVSS	high polyreactivity
QVQLVESGGGLVQAGGSLSLSCAASGRTFGYYTMGWYRQAPGKERELVAAINWGGSRTYYADSVKGRFTISRDNAKNTVYLEMNSLKPEDTAVYYCAADVYRQWADDSWGLGTQVTVSS	high polyreactivity
QVQLVESGGGLVQAGGSLRLSCAASGITLGYYVMGWYRQAPGKERELVAAISSSGGRTYYADSVKGRFTISRDTAKNTVYLQMNSLKPEDTAVYYCAADLGRGIYDYWGQGTQVTVSS	low polyreactivity
QVQLVESGGGLVQAGGSLRLSCAASGSTFGYYAMGWYRQAPGKERELVAAIRYSGGTTYYADSVKGRFTISRDNAKNTVYLQMNSLKPEDTAVYYCAAVYTSGYYYWGQGTQVTVSS	high polyreactivity

====

# Method notes: yeast display, Sf9 membrane polyspecificity reagent, FACS + sequencing; frameworks hold sequencing errors

Entry sequence	polyreactivity (PSR sort gate)
QVQLVESGGGLVQAGGSLRLSCAASGGIFGRYAMGWYRQAPGKERELVAGISYSGGSTYYADSVKGRFTISRDNAKNSVYLQMNSLKPEDTAVYYCATGGYVWYRSVNVWTRMDYWGQGTQVTVSS	high polyreactivity
QVQLQESGGGLVQAGGSLRLSCAASGTITVLYKMGWFRQAPGKEREFVASINYGTSTYYADSVKGRFTVSRDSAKNTVYLQMNSLKPEDTAVYFCSAAFRWQDVYRYWGQGTQVTVSS	low polyreactivity
QVQLVESGGGLVQAGGSLRLSCAASGFIFDGYTMGWYRQAPGKERELVAAITTSGTSTYYADSVKGRFTISRDNAKNTVYLQMNSLKPEDTADYYCAARQYRHRVKYYYWGQGTQVTVSS	high polyreactivity
QVQLVESGGGLVQAGGSLRLSCAASGSIFGWYVMGWYRQAPGKERELVAAISSGGSTNYADSVKGRFTISRDNAKNTVYLQMNSLKPEDTAVYYCAKRFRRTPYRNTYKPYDRYYWGQGTQVTVSS	high polyreactivity
QVQLVESGGGLVQAGGSLRLSCAASGSNFPLNPMGWYRPSPGKERELVAAISSSTGSTSYADSVKGRFTISRDNAKNTVYLQMNSLKPEDTAVYYCAAETPYIVDYWGQGTQVTVSS	high polyreactivity
QVQLVESGGGLVQAGGSLRLSCAASGSILLNNAMGWYRQAPGKERELVAAISLSGGGSTYYADSVKGRFTISRDNAKNTVYLQMNSLKPEDTAVYYCNADDPYLYYDSYDYWGQGTQVTVSS	low polyreactivity
QVQLVESGGGLVQAGGSLRLSCAASGSIFTWNGMGWYRQAPGKERELVAAISNGASTNYADSVKGRFTISRDNAKNTVYLQMNSLYPEDTAVYYCAAKSTGRYDYWGQGTQVTVSS	low polyreactivity
QVQLVESGGGLVQAGGSLRLSCAASGSIFRWNAMGWYRQAPGKERELVAAIDSGGSTYADSVKGRFTISRDNAKNTVYLQMNSLKPEDTAVYYCAAAIPDEWPYDYWGQGTQVTVSS	low polyreactivity
QVQLVESGGGLVQAGGSLRLSCAASGSTLTFNAMGWYRQAPWKERELVAAISWSDTDTYYADSVKGRFTISRDNAKNTVYLQINSLKPEDTAVYYCAATLSAYEMDYWGQGTQVTVSS	low polyreactivity
QVQLVESGGGSVQAGGSLRISCAASGSIFSLYAMGWYRQAPGKERELVASISSDGSTYYADSVKGRFTISRDNAKNTVYLQMNSLKPEDTAVNYCATAVYSRYSPYAGYYYWGQGTQVTVSS	low polyreactivity

====

# Method notes: yeast display, Sf9 membrane polyspecificity reagent, FACS + sequencing; frameworks hold sequencing errors

Entry sequence	polyreactivity (PSR sort gate)
QVQLVESGGGLVQAGGSLRLSCAASGSTFQYYAMGWYRQAPGKERELVAAISSGGSTYYADSVKGRFTISRDNAKNTVYLQMNSLKPEDTAVYYCAADFVKRQANRQFDYWGQGTQVTVSS	high polyreactivity
QVQLVESGGGLVQAGGSLRLSCAASGFTFAFYAMGWYRQAPGKERELVAAITGSGGSTYYADSVKGRFTISRDNAKNTVYLQMNSLKPEDTAVYYCAADKYLDYDYWGQGTQVTVSS	high polyreactivity
QVQLVESVGGLVQAGGRLRLSCAASGSIFSIYGMGWYRQAPGKERELVAVISKSGTRTFYADSVKGRFTISRDNAKNTVYLQMNSLKPEDTAVYYCNARIFFRRNVTQVRMDYWGQGTQVTVSS	high polyreactivity

====

# Method notes: yeast display, Sf9 membrane polyspecificity reagent, FACS + sequencing; frameworks hold sequencing errors
Metric name: polyreactivity (PSR sort gate)

Entry sequence	Value observed
QVQLVESGVGLVQAGGSLRLSCAASGITFTSYAMGWYRQAPVKERELVAAISSSGVRTYYADSVKGRFTISRDNSKNTVYLQMNSLKPEDTAVYYCATRRRVLYGYDYWGQGTQVTVSS	high polyreactivity
QVQLVESGGGLVQAGGSLRLTCAASGSIFYSYAMGWYRQAPGKERELVAAISWDASTYYADSVNGRFTISRDNAKNTVYLQMHSLKPEDSAVYYCNADIPYFFVFDAYDYWGQGTQVTVSS	low polyreactivity
QVQLVESGGGLVQAGGSLRLSCAASGLILYSYAMGWYRQAPGKERELVADISSGGITNYADSVKGRFTISRDNAKNTVYLQMNSLKPEDTAVYYCAADTRTSYYNDDYDYWGQGTQVTVSS	low polyreactivity
QVQLVESGGGLVQAGGSLLLSCAASGSIFGYYAMGWYRQAPGKERELVAAITRRGGSTYYADSVKGRFTISRDNAKNTVYLQMNSLKPEDTAVYYCNKVTRTEYDYWGQGTQVTVSS	high polyreactivity
QVQLVESGGGLVQAGGSLRLSRAASGRTFRTYAMGWYRQAPGKERELVAAITSGGNTYYADSVKGRFTISRDNAKNTVYLLMNSLKPDDTAVYYCAAAASGFSRYRSTTWGQGTQGTVSS	high polyreactivity
QVHLVESGGGLVQAGGSLRLSCADSGFTFRRYTMGWYRQAPGKERELVAVISASGGSTYYADSVKGRFTISRDNAKNTVYLQMNSLKPEDTAVYYCNTRAVVIGGDYWGQGTQVTVSS	high polyreactivity
QVQLVESGGGLVQAGGSLRLSCAASGSIFTWNVMGWYRQAPGKERELVAAISSGGSTNYADSVKGRFTISRDNAKNTVYLQMNSLKPEDTAVYYCATYFRVWYRSYDYWGQGTQVTVSS	high polyreactivity
EEELVESGVGLVQAGGSLRLSCAASGRTFARNAMGWYRQAPGKERELVAGINFSGGNTYYADSVKGRFTISRDNAKNTVYLQMNSLKPEDTAVYYCAARRYWEGDYWGQGTQVTVSS	low polyreactivity

====

# Method notes: yeast display, Sf9 membrane polyspecificity reagent, FACS + sequencing; frameworks hold sequencing errors

Entry sequence	polyreactivity (PSR sort gate)
QVQLVESGGGLVQAGGSLRLSCAASGFIFDSYAMGCYRQAPGKETELVAAISYSGGNTYYADSVKGRFTISRDNAQITVYLQMNSLKPEDTAFYYCAAEWSDSRWWRLWWYGEDDYWGQGTQVTVSS	high polyreactivity
QVQLVESGGGLFQAGGSLRLSCAASGRILDYYAMGWYRQAPGKERELVAAIRRRGVITYADSVKGRFTISRDNAKNTVYLLMKSLKPEDTAVYYCAAGGYEYGYWGQGTQVTVSS	low polyreactivity
QVQLVESGGGLVQAGGSLRLSCAASGRTFVYYTMGWYRQAPGKERELVAGIRRRGGRTYYADSVKGRFTISRDNAKNTVYLQMNSLKPEDTAVYYCAAQTRYQGYQEYYYWGQGTQVTVSS	high polyreactivity
QVQLVESGGGLVQAGGSLRLSCAASGRTFGYYAMGWYRQAPGKERELVAAISGSGGSTYYADSVKGRFTISRDNAKNTVYLQMKSLKPEDTAVYYCNVYPPYAMDYWGQGTQVTVSS	high polyreactivity
QVQLVESGGGLVQAGGSLRLSCAASGGIFGWYAMGWYRQAPGKERELVAAITGGGSTYYADSVKGRFTISRDNAKNTVYLQMNSLKPEDTAVYYCNADYHTEEDYWGHGTQVTVSS	low polyreactivity
QVQLVDSGGGLVHAGGSLRLSCAASGSTLIGNAMGWYRQAPWKERELVARISLRGGRTYYADSVKGRFTISRDNAKHTVYLQMNSLKPEDTAVYYCNRGGFSRYYYWGQGTQVTVSS	low polyreactivity
QVQLVESGGGIVQAGGSLRLSCAASGSIFIDYAMGWYRQAPGKERELVAAISWRGGSTYYADSVKGRFTISRDNAKNTVFLQMIRLKPEDTAVYYCAGARRSKRHEYYLGQGTQVTVSS	high polyreactivity
QVQLVESGGGLVQAGGSLRLSCAASGSTFVSYAMGWYRQAPGKERELVAAITWRGDSTYYADSVKGRFTLSRDNAKNTVYLQMNSLKPEDTAVYYCAADGRSWRYYSPYYYWGQGTQVTVSS	low polyreactivity
QVQHVESGGGLVQAGGSLRLSCAASGLTFSTYDMGWYRQAPGKERDLVAAITYSGGSTYYADSVKGRFTISRDHAKNTVYLQMNSLKPEDTAVYYSATTWYFVASWYVAIYDYWGQGTQVTVST	low polyreactivity
QVQLVESGGGLVQAGGSLRLSCAASGSIFITYAMGWYRQAPGKERELVAAITWRGGSTYYADSVKGRFTISRDNAKNTVYLQMNSLKPEDTAVYYCAAEDFYYRSQYRYWYDYWGQGTQVTVSS	high polyreactivity
QVQLVESGGGLVQAGGSLRLSCAASGSTFVVNAMGCYRQAPGKERELVAAITQSGGSTFYADSVKGRFTISRDNAKNTVYLQMNSLKPEDTAVYYWGQGTQVTVSS	low polyreactivity
QVQLVESGGGLVQAGGSLRLTCAASGSTFYYNAMGWYRQAPAKERELVADISWRGGITYYADSVKGRFTISRDNAKNTVYLQMNSLKPEDTAVYYFKADAESFDDGYWGQGTQVTVSS	low polyreactivity
QVQLVETGGGLVQAGGSLRLSCAASGIFTYTMGWYRQAPRKERELVAAITNGSTYDADSVKGRFTISRDNAKNTVYLQMNSLKPEDTEVYYCAADRSSAYRWRSAGYYKYDYWGQGTHVTVSS	low polyreactivity
QVQLVESGGGLVQAGGSLRLSCAASGSTFGLYGMGWYRQAPGKDRELVAAITWSGGSTYYADSVKGRFTISRDNAKNTVYLQMNSLKPEDTAVYYSNADYYYWFSYGIGDNEYDYWGQGTQVTVSS	low polyreactivity

Data origin: the nanobody polyreactivity screen of Harvey et al. (2022)
